- ASSAYED_TARGET: T1, human C16orf54 (human, UniProt Q6UWD8 1-224)
- T1 construct: also called huC16orf54; hC16orf54
- T1 sequence: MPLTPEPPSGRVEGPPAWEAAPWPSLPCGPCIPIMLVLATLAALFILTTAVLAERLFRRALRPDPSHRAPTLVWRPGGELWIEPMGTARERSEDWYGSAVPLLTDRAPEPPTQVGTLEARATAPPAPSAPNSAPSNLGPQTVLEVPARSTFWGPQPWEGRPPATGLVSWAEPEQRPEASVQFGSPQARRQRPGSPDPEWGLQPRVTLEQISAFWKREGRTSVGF
- TEST_DESCRIPTION: flow cytometry titration, KG1 cells (endogenous human C16orf54)
MEASURED_ATTRIBUTE: log10(EC50) (log10 of the value in nM)
Parameter value (number): base-10 log of EC50 in nM.

Before answering, review these 5 worked examples.
- BINDER: "R29-67-7A (antibody, V domains shown, Murine monoclonal IgG2a from a hybridoma) VH: DVQLQESGPGLVKPSQSLSLTCTVTGYSITSDYAWNWIRQFPGNKLEWMGYINYSGRTRYNPSLNSRISLTRDTSTNQFFLQLNSVTTEDTATYYCARENYDYEFYAMDYWGQGTSVTVSS VL: DIVMSQSPSSLAVSVGEKVTMSCKSSQNLLYSSNQKNYLAWYQQKPGQSPKLLIYWASTRESGVPDRFTGSGSGTDFTLTISSVKAEDLAVYYCQQYYIYRTFGGGTKLEIK"
  log10(EC50): 0.86
- BINDER: "R29-7-2A (antibody, V domains shown, Murine monoclonal IgG2b from a hybridoma) VH: EVQLVESGGGLIQPKGSLKLSCVASGFSFNTHAMNWVRQAPGKGLEWVARIRSKSNNYARYYADSVKDRFTISRDDSQSILYLQMNNLKTEDTAMYYCVKQGDGGFAYWGQGTLVTVSA VL: DIVMSQSPSSLAVSVGEKVTMSCKSSQSLLYSSNQKNYLAWYQQRPGQSPKLLIYWASARESGVPDRFTGSGSGTDFTLTISSVKAEDLAVYYCQQYYSYPPTFGAGTKVELK"
  log10(EC50): 0.00
- BINDER: "R29-8-9B (antibody, V domains shown, Murine monoclonal antibody from a hybridoma) VH: EVKLVESGGGVVKPGGSLKLSCAASGFTFSSYAMSWFRQTSEMSLEWVASITGGGGTYYPDSVKGRFTISRDTVRNILYLQMRSLRSGDTAIYYCARGWDENDYWGQGTTLTVSS VL: DVVMTQIPLSLPVSLGDQASISCRSSQSLVFSNGNTYLHWYFQKPGQSPKLLIYKVSNRFSGVPDRFSGSGSGTDFILRISRVEAEDLGVYFCSQSTHVPWTFGGGTKLEIK"
  log10(EC50): 0.18
- BINDER: "R29-8-75B (antibody, V domains shown, Murine monoclonal antibody from a hybridoma) VH: DVQLVESGGGLVQPGGSRKLSCAASGFTFSRFGMHWVRQAPEKGLEWVAYISSGSSTIYYADTVKGRFTISRDNPKNTLFLQMTSLRSEDTAMYYCARVDYDVALAYWGQGTLVTVSA VL: GVLMTQTPLSLPVSLGDQASISCRSSQSIVHRNGNTYLEWYLQKPGQSPKLLIYKVSNRFSGVPDRFSGSGSGTDFTLKISRVEAEDLGVYYCFQGSQWTFGGGTKLEIK"
  log10(EC50): 0.81
- BINDER: "R29-8-19B (antibody, V domains shown, Murine monoclonal antibody from a hybridoma) VH: EVKLVESGGGLVKPGGSLKFSCAASGFTFSSYAVSWVRQTPEKRLEWVASITSGGRTYYPDSVKGRFTISRDNARSMLYLHMSSLRSEDTAMYYCTRGWDENDLWGQGTTLTVSS VL: DVVMTQTPLSLPVSLGDQASISCRSSQSLVYSNGNTYLHWYLQKPGQSPQLLIYKVSNRFSGVPDRFSGSGSGTDFTLKISRVEAEDLGVYFCSQTTHVPWTFGGGTKLEIK"
  log10(EC50): -0.05

Please go through the list and note log10(EC50) for each binder.
1. R29-8-28C (antibody, V domains shown, Murine monoclonal antibody from a hybridoma) VH: EVKLVESGGGVVKPGGSLTLSCAASGFTFSNYAVSWFRQTPEKRLEWVASITSGGRTYYPDSMKGRFTISRDNARNILYLQMSSLRSEDTAIYYCGRGWDENDYWGQGTTLTVSS VL: DVVMTQTPLSLPVSLGDQASISCRSSQSLVYSNGNTYLHWYLQKPGQSPKLLIYKVSNRFSGVPDRFSGSGSGTDFTLKINRVEAEDLGVYFCSQTTHVPWTFGGGTKLEIK
2. R29-7-1C (antibody, V domains shown, Murine monoclonal IgG2a from a hybridoma) VH: DVQLQESGPGLVKPSQSLSLTCTVTGYSITSDYAWNWIRQFPGNKLEWMGYISYSGSIRYNPSLKSRISITRDTSKNQFFLQLNSVTTEDTATYYCAREKYDNYYYAMDYWGQGTSVTVSS VL: DIVMSQSPSSLAVSVGEKVTLSCKSSQNLLYSTNQKNYLAWYQQKPGQSPKLLIYWASTRESGVPDRFTGSGSGTDFTLTISSVKAEDLAVYYCQQYYSYRTFGGGTKLEIK
3. R29-8-136C (antibody, V domains shown, Murine monoclonal antibody from a hybridoma) VH: DVQLQESGPGLVKPSQSLSLTCTVTGYSITSDYAWNWIRQFPGNKLEWMGYINYSGSSRYNPSLKSRISITRDTSKNHFFLQLNSVTPEDTATYHCARERYDGVYYGMDYWGQGTSVTVSS VL: DIVMSQSPSSLAVSVGEKVTMSCKSSQSLLYSSNQKNYLAWYQQKPGQSPKLLIYWASTRESGVPDRFTGSGSGTDFTLTISSVKTEDLAVYYCQQYYSYRTFGGGTKLEIK

1: 0.32; 2: -0.52; 3: -0.70

Field request: log10(EC50) | item: R29-8-36C (antibody, V domains shown, Murine monoclonal antibody from a hybridoma) VH: EVKLVESGGGLVKPGGSLKFSCAASGFTFSSYAVSWVRQTPEKRLEWVASITSGGRSYYPDSVKGRFTISRDNARSMLYLHMSSLRSEDTAMYYCTRGWDENDLWGQGTTLTVSS VL: DVVMTQTPLSLFVSLGDQASISCRSSQSLLYSNGNTYLHWYLQRPGQSPQLLIYKVSNRFSGVPDRFSGSGSGTDFTLKISRVEAEDLGVYFCSQTTHVPWTFGGGTKLEIK -0.22
